assay: AUC (0 to infinity) in Beagle dog at […], po; type: ADME, organism-based, Canis lupus familiaris; design: route oral, time infinity, dose 2.5 mg/kg; conditions: in vivo
endpoint name: AUC (ng·h/mL)
Give a bare numeral; the unit ng·h/mL is implied.

**Q:** Need AUC, item C[C@H]1Cc2[nH]nc(-c3cscn3)c2CN1C(=O)Nc1ccc(F)c(C#N)c1
**A:** 1620

====

test: AUC (0 to infinity) in Sprague-Dawley rat at 5 mg/kg, po; format: ADME, organism-based; parameters: time infinity, route oral, dose 5 mg/kg; details: in vivo
endpoint name: AUC(0-inf) (ng·h/mL)
Form entry: value (ng·h/mL) — number only.

**Q:** Query (compound): C[C@H]1Cc2[nH]nc(-c3cscn3)c2CN1C(=O)Nc1ccc(F)c(C#N)c1 ; field requested: AUC(0-inf)
**A:** 1030
